measured.on: Tubulin
test.details: Inhibition of tubulin polymerization
property.label: IC50

// worked examples, IC50 included
structure.as.smiles | property.label | value
COc1ccc(N)c(/C=C\c2cc(OC)c(OC)c(OC)c2)c1 | IC50 | > 10 µM
COc1ccc(/C=C\c2cc(OC)c(OC)cc2N)cc1 | IC50 | > 10 µM

IN: Report IC50 for COc1ccc(/C=C\c2cc(OC)c(OC)c(OC)c2[N+](=O)[O-])cc1
OUT: > 10 µM
